experiment-summary: soluble on expression in E. coli; label from the status in PepcDB or PDB records
endpoint-name: soluble on expression in E. coli

Past entries and their recorded results:
[
  {
    "sequence-record": "MGSDKIHHHHHHMTSPCPQILWNMTRKCNFSCHYCYFPHDNSPVSDSLPVAALLDFLRSRGGEWLVGLTGGEPFIYPYFVDICSAIAAEHRIGIDTNLSVTPVVKRFARHVPPDRVHDIYAALHIEERERRGAVDAFIRNYHTLAGRGFTVKVNYVVHPSLVQRFAADCEFFGRHGIPLTPRPFKGVYEGRRYPEGYGSTAAAIFTQHPEAGRKTVFNFHGVPCHGGHTFLRMEPDGTVLRCPGDKTVLGNVLSGTVQTESGPTPCRMHRCPCQGVEHILPDAAQQDFIEGVRAYVVGDLPAAQRAFTAAHSRAPAMTQAANNAGVAAFAAGDAQAAACCFARAAADDPVTPLYAANLKLARRAAQPSPPSGTENETPELSLAVNYQRTGN",
    "soluble on expression in E. coli": "not soluble"
  },
  {
    "sequence-record": "MIIIGIDEAGRGPVLGPMVVCAFAIEKEREEELKKLGVKDSKELTKNKRAYLKKLLENLGYVEKRILEAEEINQLMNSINLNDIEINAFSKVAKNLIEKLNIRDDEIEIYIDACSTNTKKFEDSFKDKIEDIIKERNLNIKIIAEHKADAKYPVVSAASIIAKAERDEIIDYYKKIYGDIGSGYPSDPKTIKFLEDYFKKHKKLPDIARTHWKTCKRILDKSKQTKLIIE",
    "soluble on expression in E. coli": "soluble"
  },
  {
    "sequence-record": "RILDIDPVAQTAVVEPGVVCDALRDAAAEFGLTYGPDPSTHSRCTIGGMVANNACGSHSVAFGTAAENLVDVTLMLSDGREVTVTKDGCDDAEINQKLTDLASKNQDLISKELGRFPRQVSGYGLHYLAHDMAKAMAGTEGTIGIITRLTVKLVPTP",
    "soluble on expression in E. coli": "not soluble"
  },
  {
    "sequence-record": "MNQLCRAVPSLRSAVRLASSGRLYTKKHEWVLVENGVGTVGITDFATEQLGDVVFIELPDEGTEISKGDSTGAVESVKAASDIYAPISGTVTQKNVKLEEEAGLINKSPFEKGWLYKLKVKSADELEKLLNEEQYAKFKKDEEAAH",
    "soluble on expression in E. coli": "not soluble"
  },
  {
    "sequence-record": "MGSDKIHHHHHHMDVAAEYPVDKPDTQVSVRDVFGIESDLTVPAFTEVSEHVPDRDDAYCFDRDTTLAVLAGFAFNRRVMIQGYHGTGKSTHIEQIASRLNWPCIRVNLDSHVSRIDLVGKDAIVLRDGLQVTEFREGILPWCLQRPIALTFDEYDAGRADVMFVIQRVLEVEGRLTLLDQNKVIRPHPYFRLFATANTVGLGDTTGLYHGTQQINQGQMDRWNIVATLNYLEHDVEVGIALAKRPEYDTPEGRAKINAMVGVADLSRSGFINGDISTVMSPRTVLTWAENATIFGDDAFAFRVTFLNKCDETERPIIAEYYQRCFGKELPESAAFRTAFL",
    "soluble on expression in E. coli": "not soluble"
  }
]

# return recorded soluble on expression in E. coli for entry GPGSMRPSRKRQARRQHPWQQRSVAHKAQRAPSSGHGASGVEHLPRDAVVHVAPRQQHRPVGQAHRRIKRHRVVLRQQKVVPHKRHSRARHAHSPTHRHRVLAQQEVAVNKRHHGAATGRNTALHRHAQPQRRLHRQPVHVERTARRQRHAAN
soluble

Retrieve soluble on expression in E. coli measured for SKREHNHRRITVTAAIGNKHRRQLATNLHAIEHHAFEHFIAWVAENHFEPEADCKLGTRLRHAGVPGQQ and print it.
soluble

For MKMLVGKIPSELLAKILEKLKPGDKVIVGPKVGIDATAIDFGDYVLVASTDPITGTEEKIGFYAVNINANDVATFGARPKWFLVTILLPEGSEFNDVITIMDEVREVAEGMGISIVGGHTEVTPGLKKPIVVGTMLGEVEKENLVVPNPRPGDAIILTKGAGIEGTSIIAHEREEELKGVFGSNFVERAKAFINEISIVREALLSREFATAMHDPTEGGIANGLHEMADINGLGFRIFANKVIIREETRKICHFYDLDPLALISSGALLISTPRDHAKFLIERLLSHGIQASIIGEFLAEKKRVIIENGAERPLKRPESDELWKVV , write its soluble on expression in E. coli.
soluble

Entry MSYTAHEAQAALAPQFDAYSKAIEGSDWDTVATFYHPNGVIVQKGKEAFYGKDAIKAELLKFSEATGRSTSSFSNQKYEGAGDYLIITADFSSETEKAGTVKGKFVQIWKKEGDRHLIYHDEFEVNP needs its soluble on expression in E. coli filled in; supply it.
not soluble
